Taken from patent US20260166159A1.

# system: KRAS-G12D (Homo sapiens, UniProt P01116, G12D)
# Construct: endogenous in cells; host or cells: A-427 (ATCC), AGS, AsPc-1, Panc 04.03
# test.name: KRAS-G12D degradation assay (Western Blot), A-427 cells
# Type: cell-based
# condition: A-427; A427 cells, 24 h; class symbols
test.readout: Dmax

{"columns": ["compound", "result"],
 "data": [
  ["C#Cc1c(F)ccc2cc(O)cc(-c3ncc4c(N5CC6CCC(C5)N6)nc(OCC5(CN6CCC(CN7CCC8(CC7)CCN(C(=O)c7ccc(OC)c(N9CCC(=O)NC9=O)c7)CC8)CC6)CC5)nc4c3F)c12 [Example 38]", "80 to 100%"],
  ["CCc1c(F)ccc2cc(O)cc(-c3ncc4c(N5CC6CCC(C5)N6)nc(OCC5(CN6CCN(CC7CCC8(CC7)CCN(C(=O)c7ccc(C)c(N9CCC(=O)NC9=O)c7)CC8)CC6)CC5)nc4c3F)c12 [Example 37]", "80 to 100%"],
  ["C#Cc1c(F)ccc2cc(O)cc(-c3ncc4c(N5CC6CCC(C5)N6)nc(OCC5(CN6CCN(CCCCC7CCC8(CC7)CCN(C(=O)c7ccc(Cl)c(N9CCC(=O)NC9=O)c7)CC8)CC6)CC5)nc4c3F)c12 [Example 31]", "80 to 100%"],
  ["C#Cc1c(F)ccc2cc(O)cc(-c3ncc4c(N5CC6CCC(C5)N6)nc(OCC5(CN6CCN(CC7CCC8(CC7)CCN(C(=O)c7ccc(OC)c(N9CCC(=O)NC9=O)c7)CC8)CC6)CCC5)nc4c3F)c12 [Example 25]", "50 to 80%"],
  ["CCc1cccc2cc(O)cc(-c3ncc4c(N5CC6CCC(C5)N6)nc(OCC5(CN6CCN(CC7CCC8(CC7)CCN(C(=O)c7ccc(Cl)c(N9CCC(=O)NC9=O)c7)CC8)CC6)CC5)nc4c3F)c12 [Example 50]", "80 to 100%"],
  ["C#Cc1c(F)ccc2cc(O)cc(-c3ncc4c(N5CC6CCC(C5)N6)nc(OCC5(CN6CCC(COCCC7CCN(C(=O)c8ccc(Cl)c(N9CCC(=O)NC9=O)c8)CC7)CC6)CC5)nc4c3F)c12 [Example 21]", "80 to 100%"],
  ["CCc1cccc2cc(O)cc(-c3ncc4c(N5CC6CCC(C5)N6)nc(OCC5(CN6CCN(CC7CCC8(CC7)CCN(C(=O)c7ccc(OC)c(N9CCC(=O)NC9=O)c7)CC8)CC6)CC5)nc4c3F)c12 [Example 20]", "80 to 100%"],
  ["C#Cc1c(F)ccc2cc(O)cc(-c3ncc4c(N5CC6CCC(C5)N6)nc(OC[C@@H]5CCCN5CC5CCC6(CC5)CCN(C(=O)c5ccc(Cl)c(N7CCC(=O)NC7=O)c5)CC6)nc4c3F)c12 [Example 12]", "50 to 80%"],
  ["C#Cc1c(F)ccc2cc(O)cc(-c3ncc4c(N5CC6CCC(C5)N6)nc(OCC5(CN6CC7CC6CN7CC6CCC7(CC6)CCN(C(=O)c6ccc(Cl)c(N8CCC(=O)NC8=O)c6)CC7)CC5)nc4c3F)c12 (stereo not drawn) [Example 59]", "< 30%"]
]}

----------
Listing of recorded IC50 by entry.
# system: Human KRAS G12D 6His-tagged (Homo sapiens, UniProt P01116, G12D)
# Construct: purchased PerkinElmer
# Sequence (P01116 1-188 isoform P01116-2 G12D): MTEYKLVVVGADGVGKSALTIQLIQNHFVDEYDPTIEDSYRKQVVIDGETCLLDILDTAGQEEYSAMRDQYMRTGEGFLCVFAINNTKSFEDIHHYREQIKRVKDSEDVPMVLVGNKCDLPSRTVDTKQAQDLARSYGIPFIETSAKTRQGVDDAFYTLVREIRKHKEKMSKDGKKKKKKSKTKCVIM
# test.name: KRAS-G12D/GTP binding assay (HTRF)
# condition: class symbols
test.readout: IC50

{"columns": ["molecule", "result"],
 "data": [
  ["C#Cc1c(F)ccc2cc(O)cc(-c3ncc4c(N5CC6CCC(C5)N6)nc(OCC5(CN6CCN(CC7CCC8(CC7)CCN(C(=O)c7ccc(Cl)c(N9CCC(=O)N(C)C9=O)c7)CC8)CC6)CC5)nc4c3F)c12", "≤ 50 nM"],
  ["C#Cc1c(F)ccc2cc(O)cc(-c3ncc4c(N5CC6CCC(C5)N6)nc(OCC56CC(CN7CCN(CCC8CCC9(CC8)CCN(C(=O)c8ccc(Cl)c(N%10CCC(=O)NC%10=O)c8)CC9)CC7)(C5)C6)nc4c3F)c12", "50 to 100 nM"],
  ["CCc1c(F)ccc2cc(O)cc(-c3ncc4c(N5CC6CCC(C5)N6)nc(OCC5(CN6CCN(CC7CCC8(CC7)CCN(C(=O)c7ccc(Cl)c(N9CCC(=O)NC9=O)c7)CC8)CC6)CC5)nc4c3F)c12", "50 to 100 nM"],
  ["C#Cc1c(F)ccc2cc(O)cc(-c3ncc4c(N5CC6CCC(C5)N6)nc(OCC56CC(CN7CCN(CC8CCC9(CC8)CCN(C(=O)c8ccc(Cl)c(N%10CCC(=O)NC%10=O)c8)CC9)CC7)(C5)C6)nc4c3F)c12", "100 to 500 nM"]
]}

----------
Listing of recorded DC50 by entry.
# system: KRAS-G12D (Homo sapiens, UniProt P01116, G12D)
# Construct: endogenous in cells; host or cells: A-427 (ATCC), AGS, AsPc-1, Panc 04.03
# test.name: KRAS-G12D degradation assay (Western Blot), A-427 cells
# Format: cell-based
# condition: A427 cells, 24 h; numeric values
# From the text: The degradation effects of the compounds on KRAS-G12D were investigated on KRAS G12D mutant human lung cancer cell A-427 (ATCC), KRAS G12D mutant human gastric cancer cell AGS, KRAS G12D mutant human metastatic pancreatic cancer cell AsPc-1, and KRAS G12D mutant human pancreatic adenocarcinoma cell Panc 04.03. […]

{"columns": ["molecule", "DC50 (nM)"],
 "data": [
  ["C#Cc1cccc2cc(O)cc(-c3ncc4c(N5CC6CCC(C5)N6)nc(OCC5(CN6CCN(CC7CCC8(CC7)CCN(C(=O)c7ccc(OC)c(N9CCC(=O)NC9=O)c7)CC8)CC6)CC5)nc4c3F)c12 [Example 82]", 1.21],
  ["Cc1ccc(C(=O)N2CCC3(CCC(CN4CCN(CC5(COc6nc(N7CC8CCC(C7)N8)c7cnc(-c8cc(O)cc(Cl)c8C8CC8)c(F)c7n6)CC5)CC4)CC3)CC2)cc1N1CCC(=O)NC1=O [Example 81]", 16.8],
  ["CCc1cccc2cc(O)cc(-c3ncc4c(N5CCC6CCC(C5)N6)nc(OCC5(CN6CCN(CC7CCC8(CC7)CCN(C(=O)c7ccc(OC)c(N9CCC(=O)NC9=O)c7)CC8)CC6)CC5)nc4c3F)c12 (stereo not drawn) [Example 88]", 0.65]
]}

----------
# system: KRAS-G12D (Homo sapiens, UniProt P01116, G12D)
# Construct: endogenous in cells; host or cells: A-427 (ATCC), AGS, AsPc-1, Panc 04.03
# test.name: KRAS-G12D degradation assay (Western Blot), A-427 cells
# Type: cell-based
# condition: A427 cells, 24 h; class symbols
Listing of recorded DC50 by entry.

{"columns": ["compound", "system", "DC50"],
 "data": [
  ["C#Cc1c(F)ccc2cc(O)cc(-c3ncc4c(N5CC6CCC(C5)N6)nc(OCC5(CN6CCN(CCCCC7CCN(C(=O)c8ccc(Cl)c(N9CCC(=O)NC9=O)c8)CC7)CC6)CC5)nc4c3F)c12 [Example 5]", "KRAS-G12D (Homo sapiens, UniProt P01116, G12D)", "≤ 50 nM"],
  ["CCc1cccc2cc(O)cc(-c3ncc4c(N5CC6CCC(C5)N6)nc(OCC5(CN6CCN(CC7CCC8(CC7)CCN(C(=O)c7ccc(Cl)c(N9CCC(=O)NC9=O)c7)CC8)CC6)CC5)nc4c3F)c12 [Example 50]", "KRAS-G12D (Homo sapiens, UniProt P01116, G12D)", "≤ 50 nM"],
  ["C#Cc1c(F)ccc2cc(O)cc(-c3ncc4c(N5CC6CCC(C5)N6)nc(OCC5(CN6CCN(CC7CCC8(CC7)CCN(C(=O)c7ccc(OC(F)(F)F)c(N9CCC(=O)NC9=O)c7)CC8)CC6)CC5)nc4c3F)c12 [Example 39]", "KRAS-G12D (Homo sapiens, UniProt P01116, G12D)", "≤ 50 nM"],
  ["C#Cc1c(F)ccc2cc(O)cc(-c3ncc4c(N5CC6CCC(C5)N6)nc(OCC5(CN6CC(CN7CCC8(CC7)CCN(C(=O)c7ccc(OC)c(N9CCC(=O)NC9=O)c7)CC8)C6)CC5)nc4c3F)c12 [Example 40]", "KRAS-G12D (Homo sapiens, UniProt P01116, G12D)", "1000 to 10000 nM"],
  ["Cc1ccc2[nH]ncc2c1-c1ncc2c(N3CC4CCC(C3)N4)nc(OCC3(CN4CCN(CC5CCC6(CC5)CCN(C(=O)c5ccc(Cl)c(N7CCC(=O)NC7=O)c5)CC6)CC4)CC3)nc2c1F [Example 16]", "KRAS-G12D (Homo sapiens, UniProt P01116, G12D)", "1000 to 10000 nM"],
  ["CCc1cccc2cc(O)cc(-c3ncc4c(N5CC6CCC(C5)N6)nc(OCC5(CN6CCN(CCCC7CCN(C(=O)c8ccc(Cl)c(N9CCC(=O)NC9=O)c8)CC7)CC6)CC5)nc4c3F)c12 [Example 19]", "KRAS-G12D (Homo sapiens, UniProt P01116, G12D)", "50 to 100 nM"]
]}
